# System: IFNγ-induced NO production in RAW 264.7 cells
# measurementNotes: Nitric Oxide Suppression Assay (IFNγ-induced NO, Griess nitrite readout)
# Type: cell-based, mouse
# cond: Mus musculus, RAW264.7, Table 2; RAW 264.7 cells, 2 h pretreatment, 20 ng/mL interferon gamma 24 h; read-out: Avg NO IC50 (nM) (Mean ± SD)
resultType: IC50 (nM)

C[C@@H]1[C@H]2[C@H]3C(=O)C=C4[C@@]5(C)C=C(C#N)C(=O)C(C)(C)[C@@H]5CC[C@@]4(C)[C@]3(C)CC[C@@]2(c2nc(COC(C)(C)C)no2)CC[C@H]1C : 11.3
C[C@@H]1[C@H]2[C@H]3C(=O)C=C4[C@@]5(C)C=C(C#N)C(=O)C(C)(C)[C@@H]5CC[C@@]4(C)[C@]3(C)CC[C@@]2(CNS(C)(=O)=O)CC[C@H]1C : 7.7
C[C@@H]1[C@H]2[C@H]3C(=O)C=C4[C@@]5(C)C=C(C#N)C(=O)C(C)(C)[C@@H]5CC[C@@]4(C)[C@]3(C)CC[C@@]2(CN2CCC2)CC[C@H]1C : 14.6

A. C[C@H]1[C@H](C)CCC23CC[C@@]4(C)[C@]5(C)CC[C@H]6C(C)(C)C(=O)C(C#N)=C[C@]6(C)C5=CC(=O)[C@]4(OC2)[C@H]13
B. C[C@@H]1[C@H]2[C@H]3C(=O)C=C4[C@@]5(C)C=C(C#N)C(=O)C(C)(C)[C@@H]5CC[C@@]4(C)[C@]3(C)CC[C@@]2(Cn2ccnc2)CC[C@H]1C
C. CCC(=O)NC[C@]12CC[C@@H](C)[C@H](C)[C@H]1[C@H]1C(=O)C=C3[C@@]4(C)C=C(C#N)C(=O)C(C)(C)[C@@H]4CC[C@@]3(C)[C@]1(C)CC2
Would you mind ranking these compounds by ascending IC50? Reply format: the labels, ordered as requested. C, A, B
(C: 3.07 nM, A: 6.75 nM, B: 17.4 nM)

A. C[C@@H]1[C@H]2[C@H]3C(=O)C=C4[C@@]5(C)C=C(C#N)C(=O)C(C)(C)[C@@H]5CC[C@@]4(C)[C@]3(C)CC[C@@]2(CCC(=O)O)CC[C@H]1C
B. C[C@@H]1[C@H]2[C@H]3C(=O)C=C4[C@@]5(C)C=C(C#N)C(=O)C(C)(C)[C@@H]5CC[C@@]4(C)[C@]3(C)CC[C@@]2(CC(=O)N2CCC2)CC[C@H]1C
C. Cc1noc(C[C@]23CC[C@@H](C)[C@H](C)[C@H]2[C@H]2C(=O)C=C4[C@@]5(C)C=C(C#N)C(=O)C(C)(C)[C@@H]5CC[C@@]4(C)[C@]2(C)CC3)n1
Hello, I need these entries ordered by IC50, highest reading first. Thanks! Thanks in advance for listing the labels in the requested order. C, A, B

1. COC(C)c1noc([C@]23CC[C@@H](C)[C@H](C)[C@H]2[C@H]2C(=O)C=C4[C@@]5(C)C=C(C#N)C(=O)C(C)(C)[C@@H]5CC[C@@]4(C)[C@]2(C)CC3)n1 (some centres unmarked)
2. [2H]C([2H])([2H])C(=O)NC[C@]12CC[C@@H](C)[C@H](C)[C@H]1[C@H]1C(=O)C=C3[C@@]4(C)C=C(C#N)C(=O)C(C)(C)[C@@H]4CC[C@@]3(C)[C@]1(C)CC2
// compare measured IC50, left 1 , right 2 , return larger Identify your selection by its label. 1
(1: 7.66 nM, 2: 2.87 nM)

A. C[C@@H]1[C@H]2[C@H]3C(=O)C=C4[C@@]5(C)C=C(C#N)C(=O)C(C)(C)[C@@H]5CC[C@@]4(C)[C@]3(C)CC[C@@]2(C(=O)N2CCCC2)CC[C@H]1C
B. C[C@@H]1[C@H]2[C@H]3C(=O)C=C4[C@@]5(C)C=C(C#N)C(=O)C(C)(C)[C@@H]5CC[C@@]4(C)[C@]3(C)CC[C@@]2(CC(N)=O)CC[C@H]1C
Would you kindly point out which of A and B has the smaller IC50 figure? Use the label to indicate which entry you chose. B
